# measurement_description: COS7 lysate on small-molecule microarray, probe aHis, 635 nm (AID 1123);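 further: z-score combines 667nm fluorescence intensity with signal-to-noise per printed compound spot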
# test_conditions: COS7 cell lysate, fluorescence, higher = more signal
property: composite z-score

| molecule | composite z-score |
| --- | --- |
| COc1cc2c(cc1O)C(c1cccs1)N(Cc1cccc(OC(F)(F)F)c1)CC2 (stereo not drawn) | 2.6 |
| O=C1OCCC/C=C\[C@H]2OC34C=CCN(c5ccc6ccccc6c5)C(=O)[C@H]3N(CCCCCO)C(=O)[C@@H]4C12 (stereo partly drawn) | -1.92 |
| O=C1C2C=CC(C(O)c3c(F)cccc3Cl)N(Nc3ccccc3F)C2C(=O)N1c1ccccc1 (stereo not drawn) | 1.67 |
| C=CCN(Cc1ccccc1)C(=O)C(c1cccs1)N(C(=O)/C=C\C(=O)O)c1ccc(CCOCCO)cc1 (stereo not drawn) | -0.691 |
| OB1C=CCC(CCc2ccccc2)O1 (stereo not drawn) | -0.622 |

Quick batch: composite z-score for everything below.
1. C=C(CCCC)C(=O)CC[C@@H](OC(C)=O)c1ccc(CO)o1
2. COCCOC(=O)N1C(=O)[C@@]2(c3cc(C#CC4(O)CCCCCC4)ccc31)[C@H](C(=O)Nc1nc3ccccc3s1)[C@H]1C(=O)O[C@H](c3ccccc3)[C@H](c3ccccc3)N1[C@@H]2c1ccc(OCCO)cc1
3. C=CC1c2cc(O)c(OC)cc2CCN1Cc1cccc(OC(F)(F)F)c1 (stereo not drawn)

stdout:
1. 0.423
2. 0.541
3. 3.33
